# Assayed system: GDP-bound KRAS protein (aa 1-169), containing both G12C and C118A amino acid substitutions (Homo sapiens, UniProt P01116, C118A/G12C)
# Sequence (P01116 1-169 isoform P01116-2 G12C/C118A): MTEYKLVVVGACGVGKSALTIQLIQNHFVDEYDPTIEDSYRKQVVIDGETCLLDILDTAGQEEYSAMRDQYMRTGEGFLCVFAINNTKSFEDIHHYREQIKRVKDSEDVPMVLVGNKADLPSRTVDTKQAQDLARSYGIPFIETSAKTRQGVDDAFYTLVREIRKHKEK
# Test: Coupled Nucleotide Exchange Assay (SOS-mediated nucleotide exchange, AlphaScreen)
# Type: biochemical
# Assay conditions: compound pre-incubation either 5 min or 2 hours (not stated per compound); SOS and GTP added, cRAF AlphaScreen read-out
Quantity kind: IC50 (nM)

{"Compound": "C=CC(=O)N1CCN(C2=NS(=O)(=O)N(c3ccc(CN(C)C)cc3C(C)C)c3nc(-c4ccccc4F)c(Cl)cc32)[C@@H](C)C1 [Example 3-1]", "Reading": 150}
{"Compound": "C=CC(=O)N1C[C@H](C)N(C2=NS(=O)(=O)N(c3ccccc3C(C)(C)C)c3nc(-c4ccccc4F)c(Cl)cc32)C[C@H]1C [Example 1-1-2]", "Reading": 70800}
{"Compound": "C=CC(=O)N1CCN(C2=NS(=O)(=O)N(c3ccccc3CC(C)C)c3nc(-c4ccccc4F)c(Cl)cc32)[C@@H](C)C1 [Example 3-2]", "Reading": 800}
{"Compound": "C=CC(=O)N1C[C@H](C)N(C2=NS(=O)(=O)N(c3c(CC)cccc3CC)c3nc(-c4c(N)cccc4F)c(Cl)cc32)C[C@H]1C [Example 1-7]", "Reading": 890}
{"Compound": "C=CC(=O)N1CCN(C2=NS(=O)(=O)N(c3ccccc3C(C)C)c3nc(-c4c(O)cccc4F)c(Cl)cc32)[C@@H](C)C1 [Example 1-2]", "Reading": 150}

====

# Assayed system: GDP-bound KRAS protein (aa 1-169), containing both G12C and C118A amino acid substitutions (Homo sapiens, UniProt P01116, C118A/G12C)
# Test: Coupled Nucleotide Exchange Assay (SOS-mediated nucleotide exchange, AlphaScreen)
# Type: biochemical
# Assay conditions: compound pre-incubation either 5 min or 2 hours (not stated per compound); SOS and GTP added, cRAF AlphaScreen read-out

{"Molecule": "C=CC(=O)N1C[C@H](C)N(C2=NS(=O)(=O)N(c3ccc(CN(C)C)cc3C(C)(C)C)c3nc(-c4ccccc4F)c(Cl)cc32)C[C@H]1C [Example 1-13-1]", "IC50 / nM": 40}
{"Molecule": "C=CC(=O)N1CCN(C2=NS(=O)(=O)N(c3c(C)ccnc3C(C)C)c3nc(-c4ccccc4F)c(Cl)cc32)[C@@H](C)C1 (single isomer, unassigned) [Example 2-2-1]", "IC50 / nM": 240}
{"Molecule": "C=CC(=O)N1C[C@H](C)N(C2=NS(=O)(=O)N(c3c(C)cc(CN(C)C)cc3C(C)C)c3nc(-c4c(N)cccc4F)c(Cl)cc32)C[C@H]1C [Example 8-1]", "IC50 / nM": 80}

====

# Assayed system: GDP-bound KRAS protein (aa 1-169), containing both G12C and C118A amino acid substitutions (Homo sapiens, UniProt P01116, C118A/G12C)
# Test: Coupled Nucleotide Exchange Assay (SOS-mediated nucleotide exchange, AlphaScreen)
# Format: biochemical
# Assay conditions: compound pre-incubation either 5 min or 2 hours (not stated per compound); SOS and GTP added, cRAF AlphaScreen read-out
# Protocol: For compounds in Table 6, the following assay conditions were employed: Coupled Nucleotide Exchange Assay: Purified GDP-bound KRAS protein (aa 1-169), containing both G12C and C118A amino acid substitutions and an N-terminal His-tag, was pre-incubated in assay buffer (25 mM HEPES pH 7.4, 10 mM MgCl2, and 0.01% Triton X-100) with a compound dose-response titration for either 5 min or 2 hours (see Table 15). […]
Measured IC50 values are reported for all entries that follow.

{"Molecule": "C=CC(=O)N1CCN(C2=NS(=O)(=O)N(c3c(C)ccnc3C(C)C)c3nc(-c4ccccc4F)c(Cl)cc32)[C@@H](C)C1 (single isomer, unassigned) [Example 2-2-2]", "Endpoint unit": "nM", "IC50": 2980}
{"Molecule": "C=CC(=O)N1C[C@H](C)N(C2=NS(=O)(=O)N(c3c(C)cc(CN(C)C)cc3C(C)C)c3nc(-c4c(N)cccc4F)c(Cl)cc32)C[C@H]1C [Example 8-2]", "Endpoint unit": "nM", "IC50": 1460}
{"Molecule": "C=CC(=O)N1C[C@H](C)N(C2=NS(=O)(=O)N(c3ccc(CN(C)C)cc3C3CC3)c3nc(-c4ccccc4F)c(Cl)cc32)C[C@H]1C", "Endpoint unit": "nM", "IC50": 150}
{"Molecule": "C=CC(=O)N1C[C@H](C)N(C2=NS(=O)(=O)N(c3c(CC)cccc3CC)c3nc(-c4ccccc4F)c(Cl)cc32)C[C@H]1C", "Endpoint unit": "nM", "IC50": 2690}
{"Molecule": "C=CC(=O)N1CCN(C2=NS(=O)(=O)N(c3c(C(C)C)ncnc3C(C)C)c3nc(-c4ccccc4F)c(Cl)cc32)[C@@H](C)C1", "Endpoint unit": "nM", "IC50": 290}
{"Molecule": "C=CC(=O)N1C[C@H](C)N(C2=NS(=O)(=O)N(c3ccccc3C(C)(C)C)c3nc(-c4c(N)cccc4F)c(Cl)cc32)C[C@H]1C (single isomer, unassigned) [Example 1-8-2]", "Endpoint unit": "nM", "IC50": 69300}
